Data origin, for the record: patent US20230322924A1

System Under Test: T1, Cyno CD33 full length, expressed on HEK293F cells (cynomolgus monkey)
T1 construct: HEK293F cells transduced with lentivirus containing full length cyno CD33 (Genbank XP_005590138.1); also called cyCD33
Method: flow cytometry, HEK293F cells expressing cyno CD33
MFI at 60 nM mAb for assorted binders
State the answer as a number, implicitly in MFI.

[
  {
    "Binder": "C33B125 (antibody, IgG1, V domains shown, huIgG1 F405L; also called C33F130; C33H84/C33L66) VH: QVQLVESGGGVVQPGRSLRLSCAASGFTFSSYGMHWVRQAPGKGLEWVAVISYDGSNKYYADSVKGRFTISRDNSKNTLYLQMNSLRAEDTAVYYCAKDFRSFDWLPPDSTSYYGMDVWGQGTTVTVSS VL: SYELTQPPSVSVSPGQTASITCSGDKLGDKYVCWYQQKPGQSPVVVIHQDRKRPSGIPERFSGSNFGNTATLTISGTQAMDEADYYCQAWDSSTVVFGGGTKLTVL",
    "Unit Symbol": "MFI",
    "MFI at 60 nM mAb": 15600
  },
  {
    "Binder": "C33B79 (antibody, IgG1, V domains shown, huIgG1 F405L; also called C33F84; C33H74/C33L38) VH: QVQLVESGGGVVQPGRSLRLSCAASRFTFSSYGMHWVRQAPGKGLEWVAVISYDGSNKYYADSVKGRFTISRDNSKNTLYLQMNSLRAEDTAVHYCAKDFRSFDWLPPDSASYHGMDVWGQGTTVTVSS VL: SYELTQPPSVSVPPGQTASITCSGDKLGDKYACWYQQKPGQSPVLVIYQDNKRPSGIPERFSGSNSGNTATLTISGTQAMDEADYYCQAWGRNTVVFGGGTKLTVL",
    "Unit Symbol": "MFI",
    "MFI at 60 nM mAb": 15500
  },
  {
    "Binder": "C33B96 (antibody, IgG1, V domains shown, huIgG1 F405L; also called C33F101; C33H99/C33L37) VH: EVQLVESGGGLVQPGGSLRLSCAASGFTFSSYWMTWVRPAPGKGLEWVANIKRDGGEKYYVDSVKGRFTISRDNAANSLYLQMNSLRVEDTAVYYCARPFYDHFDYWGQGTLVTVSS VL: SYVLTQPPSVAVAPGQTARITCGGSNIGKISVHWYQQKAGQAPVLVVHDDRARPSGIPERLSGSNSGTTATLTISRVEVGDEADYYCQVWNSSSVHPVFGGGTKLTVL",
    "Unit Symbol": "MFI",
    "MFI at 60 nM mAb": 37300
  }
]

Request: Give MFI at 60 nM mAb for the following binder: C33B124 (antibody, IgG1, V domains shown, huIgG1 F405L; also called C33F129; C33H73/C33L32) VH: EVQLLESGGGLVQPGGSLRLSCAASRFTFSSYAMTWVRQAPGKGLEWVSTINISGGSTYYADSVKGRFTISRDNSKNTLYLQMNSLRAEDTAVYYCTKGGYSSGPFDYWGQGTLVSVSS VL: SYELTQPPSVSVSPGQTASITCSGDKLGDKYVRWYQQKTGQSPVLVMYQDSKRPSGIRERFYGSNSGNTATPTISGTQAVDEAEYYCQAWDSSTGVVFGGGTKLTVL
Result: 593

Request: Give MFI at 60 nM mAb for the following binder: C33B101 (antibody, V domains shown, huIgG1 F405L; 260 is used; also called C33F106; C33H69/C4LL152) VH: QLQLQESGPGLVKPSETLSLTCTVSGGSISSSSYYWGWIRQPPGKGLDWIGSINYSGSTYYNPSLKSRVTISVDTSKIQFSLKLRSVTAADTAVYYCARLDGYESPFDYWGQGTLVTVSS VL: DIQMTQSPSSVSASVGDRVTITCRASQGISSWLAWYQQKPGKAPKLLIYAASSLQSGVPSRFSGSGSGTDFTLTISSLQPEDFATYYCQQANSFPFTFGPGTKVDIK
Result: 48000

Request: Give MFI at 60 nM mAb for the following binder: C33B82 (antibody, IgG1, V domains shown, huIgG1 F405L; also called C33F87; C33H78/C33L57) VH: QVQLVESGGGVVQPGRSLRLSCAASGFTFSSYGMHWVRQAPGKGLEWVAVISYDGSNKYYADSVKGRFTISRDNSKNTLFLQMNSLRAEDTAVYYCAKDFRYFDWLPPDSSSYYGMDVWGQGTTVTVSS VL: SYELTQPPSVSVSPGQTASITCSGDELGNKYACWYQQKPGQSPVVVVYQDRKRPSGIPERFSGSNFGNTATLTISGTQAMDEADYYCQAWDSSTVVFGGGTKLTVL
Result: 14300

Request: Give MFI at 60 nM mAb for the following binder: C33B54 (antibody, IgG1, V domains shown, huIgG1 F405L; also called C33F59; C33H44/C33L10) VH: QVQLQQSGPGLVKPSQTLSLTCAISGDSVSSNSAAWNWIRQSPSRGLEWLGRTYYRSKWYNDYAVSVRSRITINPDTSKNQFSLQLNSVTPEDTAVYHCARETMFRGLMDYWGQGTLVTVSS VL: SYVLTQPPSVSVAPGQTARITCGGSNIGSKSVHWYQQKPGQAPVMVVYDDSDRPSGIPERFSGSNSGNTATLTISRVEAGDEADYYCQVWDSSSDVVFGGGTKLTVL
Result: 50500

Request: Give MFI at 60 nM mAb for the following binder: C33B89 (antibody, IgG1, V domains shown, huIgG1 F405L; also called C33F94; C33H90/C33L51) VH: QVQLQQSGPGLVKPSQTLSLTCAISGDSVSSNSAAWNWIRQSPSRGLEWLGRTYYRSKWYNDYALSVQSRITINPDTSKNQFSLQLNSVTPEDTAVYYCAREVAVAASFDYWGQGTLVTVSS VL: SYVLTQPPSVSVAPGQTARITCGGNNIGSKSVHWSQQKPGQAPVLVVYDDSDRPSGIPERFSGSNSGNTATLTISRVEAGDEADYYCQVWDSNSDHVVFGGGTKLTVL
Result: 47300

Request: Give MFI at 60 nM mAb for the following binder: C33B73 (antibody, IgG1, V domains shown, huIgG1 F405L; also called C33F78; C33H66/C33L60) VH: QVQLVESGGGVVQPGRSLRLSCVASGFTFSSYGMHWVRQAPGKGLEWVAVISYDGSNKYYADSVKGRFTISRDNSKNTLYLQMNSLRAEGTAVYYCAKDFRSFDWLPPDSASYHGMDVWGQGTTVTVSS VL: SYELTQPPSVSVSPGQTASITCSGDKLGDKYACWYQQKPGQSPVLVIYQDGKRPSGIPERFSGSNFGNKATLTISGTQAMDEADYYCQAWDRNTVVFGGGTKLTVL
Result: 14800

Request: Give MFI at 60 nM mAb for the following binder: C33B66 (antibody, IgG1, V domains shown, huIgG1 F405L; also called C33F71; C33H55/C33L42) VH: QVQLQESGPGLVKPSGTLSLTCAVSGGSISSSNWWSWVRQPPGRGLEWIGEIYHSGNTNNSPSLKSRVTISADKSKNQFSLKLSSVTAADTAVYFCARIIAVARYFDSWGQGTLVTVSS VL: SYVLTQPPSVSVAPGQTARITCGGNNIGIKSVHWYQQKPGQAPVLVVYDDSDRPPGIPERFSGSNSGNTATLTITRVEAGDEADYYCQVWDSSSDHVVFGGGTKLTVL
Result: 48900
